test system: tonic hindlimb extensor seizures; test: Threshold Maximal Electroshock (animal model for generalized seizures); format: in vivo, Male CF-1 mice; details: Mus musculus, ip, 0.5 h, read-out: Number of Animals Protected from Seizures (n/5)
Where a name gives a salt, the structure may show the parent alone.
MEASUREMENT KIND: responders at 30 mg/kg (%)

| MOLECULE | UNITS TEXT | OBS VALUE |
| --- | --- | --- |
| O=C(O)C1=CCCN(CCOC(c2ccc(Cl)cc2)c2ccc(Cl)cc2)C1 [XIX, hydrochloride] | % | 80 |
| O=C(O)C1CCCN(CCOC(c2ccc(C(F)(F)F)cc2)c2ccc(C(F)(F)F)cc2)C1 (stereo not shown) [XVIII, hydrochloride] | % | 100 |
| O=C(O)C1CCCN(CCOC(c2ccccc2)c2ccc(Cl)c(Cl)c2)C1 (stereo not shown) [Example IX, monohydrochloride] | % | 60 |
| O=C(O)C1CCCN(CCOC2c3ccccc3C=Cc3ccccc32)C1 (stereo not shown) | % | 20 |

---

test system: tonic hindlimb extensor seizures; assay: Threshold Maximal Electroshock (animal model for generalized seizures); type: in vivo, Male CF-1 mice; details: Mus musculus, ip, 0.5 h, read-out: Number of Animals Protected from Seizures (n/5)
Structures can show the parent of a compound that is named as a salt.
Recorded responders at 30 mg/kg, one value per entry.
MEASUREMENT KIND: responders at 30 mg/kg (%)

| MOLECULE | OBS VALUE |
| --- | --- |
| Cl.O=C(O)C1CCCN(CCOC(c2ccccc2)c2ccccc2)C1 (stereo not shown) [VII, monohydrochloride] | 25 |
| CCOC(=O)C1CCCN(CCOC(c2ccc(Cl)cc2)c2ccc(Cl)cc2)C1 (stereo not shown) | 0 |
| O=C(O)C1CCCN(CCOC(c2ccc(F)cc2)c2ccc(F)cc2)C1 (stereo not shown) [XIII, monohydrochloride] | 40 |
| CCOC(=O)C1CCCN(CCOC(c2ccccc2)c2ccccc2)C1 (stereo not shown) | 20 |
| O=C(O)C1CCCN(CCOC(c2ccccc2)c2ccc(Cl)c(C(F)(F)F)c2)C1 (stereo not shown) | 20 |
| O=C(O)C1CCCN(CCOC(c2ccc(Cl)cc2)c2ccc(Cl)cc2)C1 (stereo not shown) | 80 |
| Cl.O=C(O)C1=CCCN(CCOC(c2ccc(C(F)(F)F)cc2)c2ccc(C(F)(F)F)cc2)C1 [XVII, monohydrochloride] | 80 |

---

Recorded pIC50, one value per entry.
tested on: uptake of the neurotransmitter gamma-amino-butyric acid (GABA) into slices of rat hippocampal (brain) tissue; experiment: Uptake of 3H-GABA into slices (prisms) of rat hippocampus in vitro; assay type: biochemical, Male Long Evans rats; conditions: 3H-GABA 0.05 μM; 10 mg tissue, 15 min with test compound at 37° C., 2 min uptake; read-out: IC50 (Calculated Median (50%) Inhibitory Concentration)
pIC50: −log10 of the molar value. Structures can show the parent of a compound that is named as a salt.
MEASUREMENT KIND: pIC50

| COMPOUND | MEASUREMENT KIND | OBS VALUE |
| --- | --- | --- |
| O=C(O)C1=CCCN(CCOC(c2ccc(Cl)cc2)c2ccc(Cl)cc2)C1 [XIX, hydrochloride] | pIC50 | 7.00 |
| Cl.O=C(O)C1CCCN(CCOC(c2ccccc2)c2ccccc2)C1 (stereo not shown) [VII, monohydrochloride] | pIC50 | 5.52 |
| O=C(O)C1CCCN(CCOC(c2ccc(C(F)(F)F)cc2)c2ccc(C(F)(F)F)cc2)C1 (stereo not shown) [XVIII, hydrochloride] | pIC50 | 6.15 |
| O=C(O)C1CCCN(CCCOC(c2ccccc2)c2ccccc2)C1 (stereo not shown) [VI, monohydrochloride] | pIC50 | 4.96 |
| CCOC(=O)C1CCCN(CCOC(c2ccc(Cl)cc2)c2ccc(Cl)cc2)C1 (stereo not shown) | pIC50 | 4.92 |
| Cl.O=C(O)C1=CCCN(CCOC(c2ccc(C(F)(F)F)cc2)c2ccc(C(F)(F)F)cc2)C1 [XVII, monohydrochloride] | pIC50 | 6.35 |
| O=C(O)C1CCCN(CCOC(c2ccccc2)c2ccc(Cl)c(C(F)(F)F)c2)C1 (stereo not shown) | pIC50 | 6.07 |
| O=C(O)C1CCCN(CCOC(c2ccc(Cl)cc2)c2ccc(Cl)cc2)C1 (stereo not shown) | pIC50 | 6.54 |
